Source of measurements: ChEMBL document CHEMBL2157931

Molecular target: Tyrosine-protein phosphatase non-receptor type 12 (Homo sapiens)
Sequence (Q05209 whole entry): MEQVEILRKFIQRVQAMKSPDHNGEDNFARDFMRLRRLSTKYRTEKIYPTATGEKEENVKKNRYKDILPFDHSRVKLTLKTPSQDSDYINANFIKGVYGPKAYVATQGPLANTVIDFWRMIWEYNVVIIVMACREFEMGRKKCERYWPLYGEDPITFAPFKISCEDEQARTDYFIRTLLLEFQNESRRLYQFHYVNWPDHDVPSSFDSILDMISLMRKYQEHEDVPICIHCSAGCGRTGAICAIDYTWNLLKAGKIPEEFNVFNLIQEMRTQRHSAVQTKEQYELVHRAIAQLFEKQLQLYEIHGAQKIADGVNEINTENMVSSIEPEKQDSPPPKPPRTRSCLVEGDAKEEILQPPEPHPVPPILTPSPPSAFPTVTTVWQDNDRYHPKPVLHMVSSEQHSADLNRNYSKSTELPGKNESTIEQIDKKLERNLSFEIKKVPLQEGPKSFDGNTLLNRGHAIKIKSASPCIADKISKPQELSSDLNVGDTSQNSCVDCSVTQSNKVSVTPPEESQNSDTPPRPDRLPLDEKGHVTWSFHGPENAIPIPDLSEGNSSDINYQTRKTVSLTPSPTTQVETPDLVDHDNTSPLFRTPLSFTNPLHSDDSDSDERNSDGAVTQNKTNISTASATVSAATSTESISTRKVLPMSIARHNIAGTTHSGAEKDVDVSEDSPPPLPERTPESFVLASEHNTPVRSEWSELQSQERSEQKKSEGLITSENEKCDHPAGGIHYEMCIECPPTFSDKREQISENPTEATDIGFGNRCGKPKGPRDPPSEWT
endpoint_name: pIC50
Give bare numbers, as −log10 of the molar value.

[
  {
    "smiles_structure": "Cc1ccc2sc(NC(=O)c3sc4ccccc4c3Cl)nc2c1",
    "assayed_system": "Tyrosine-protein phosphatase non-receptor type 12 (Homo sapiens)",
    "readout_value": 4.85
  },
  {
    "smiles_structure": "Cc1ccc2cc(C#N)c(SCC(=O)NC3CCCCC3)nc2c1C",
    "assayed_system": "Tyrosine-protein phosphatase non-receptor type 12 (Homo sapiens)",
    "readout_value": 4.68
  },
  {
    "smiles_structure": "Cc1ccc2cc(C#N)c(SCC(=O)Nc3ccc4c(c3)OCO4)nc2c1",
    "assayed_system": "Tyrosine-protein phosphatase non-receptor type 12 (Homo sapiens)",
    "readout_value": 4.44
  }
]

Kindly give each listed record's pIC50.
1. Cc1cccc2cc(C#N)c(SCC(=O)Nc3cccc(Cl)c3)nc12
2. CCOc1ccc(NC(=O)CSc2nc3c(C)cc(C)cc3cc2C#N)cc1
3. Cc1ccc(NC(=O)CSc2nc3c(C)c(C)ccc3cc2C#N)cc1C
4. COc1ccc2cc(C#N)c(SCC(=O)Nc3cccc(C)c3C)nc2c1

1: 4.55; 2: 4.80; 3: 4.56; 4: 4.74

* * *

Recorded below: pIC50, system Tyrosine-protein phosphatase non-receptor type 22 (Homo sapiens).
Numbers only, as −log10 of the molar value.

Solved cases below.
[
  {
    "compound": "Cc1ccc2[nH]c(=O)c(C(c3nnnn3C3CCCC3)N(Cc3ccccc3)Cc3ccccc3)cc2c1 (stereo not given)",
    "assayed_system": "Tyrosine-protein phosphatase non-receptor type 22 (Homo sapiens)",
    "pIC50": 4.88
  },
  {
    "compound": "Cc1ccc(NC(=O)CSc2nc3c(C)c(C)ccc3cc2C#N)cc1C",
    "assayed_system": "Tyrosine-protein phosphatase non-receptor type 22 (Homo sapiens)",
    "pIC50": 4.58
  }
]

Kindly give each listed record's pIC50.
1. COc1ccc2cc(C#N)c(SCC(=O)Nc3cccc(C)c3C)nc2c1
2. Cc1ccc2[nH]c(=O)c(C(c3nnnn3C(C)C)N3CCCC4(CCCCC4)C3)cc2c1 (stereo not given)
3. Cc1cccc2cc(C#N)c(SCC(=O)Nc3cccc(Cl)c3)nc12

[4.52, 4.67, 4.57]

Kindly give each listed record's pIC50.
1. CCOc1ccc(NC(=O)CSc2nc3c(C)cc(C)cc3cc2C#N)cc1
2. COc1ccc(N2CCN(C(c3cc4cc(C)ccc4[nH]c3=O)c3nnnn3C3CCCC3)CC2)cc1 (stereo not given)
3. Cc1ccc2sc(NC(=O)c3sc4ccccc4c3Cl)nc2c1

1. 4.55
2. 4.50
3. 4.53

* * *

Target: UniProt Q9Y2R2
Sequence (Q9Y2R2 whole entry): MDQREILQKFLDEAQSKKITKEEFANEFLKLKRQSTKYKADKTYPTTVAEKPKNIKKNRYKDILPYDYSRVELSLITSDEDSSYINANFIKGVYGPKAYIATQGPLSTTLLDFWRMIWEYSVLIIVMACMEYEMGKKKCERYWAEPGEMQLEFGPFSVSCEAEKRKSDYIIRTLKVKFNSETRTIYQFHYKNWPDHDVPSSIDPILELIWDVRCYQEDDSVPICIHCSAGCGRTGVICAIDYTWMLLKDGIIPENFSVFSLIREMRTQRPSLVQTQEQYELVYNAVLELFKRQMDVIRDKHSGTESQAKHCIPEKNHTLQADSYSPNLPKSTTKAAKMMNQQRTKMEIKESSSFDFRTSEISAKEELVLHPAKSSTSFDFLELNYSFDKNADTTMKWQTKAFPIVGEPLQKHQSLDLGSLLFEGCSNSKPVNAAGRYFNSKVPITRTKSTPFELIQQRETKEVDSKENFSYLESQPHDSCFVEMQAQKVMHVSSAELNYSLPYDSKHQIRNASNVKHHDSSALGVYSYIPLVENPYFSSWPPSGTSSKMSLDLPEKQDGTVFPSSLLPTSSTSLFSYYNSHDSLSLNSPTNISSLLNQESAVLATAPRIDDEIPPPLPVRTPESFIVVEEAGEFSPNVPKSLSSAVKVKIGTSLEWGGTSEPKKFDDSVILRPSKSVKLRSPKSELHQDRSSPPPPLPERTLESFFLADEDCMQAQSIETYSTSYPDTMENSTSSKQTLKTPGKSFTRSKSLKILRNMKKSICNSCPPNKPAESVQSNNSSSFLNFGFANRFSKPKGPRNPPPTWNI
endpoint_name: Ki (µM)
One number for each entry, in µM.

Name the recorded Ki for Cc1ccc2[nH]c(=O)c(C(c3nnnn3C3CCCC3)N3CCN(C(c4ccccc4)c4ccccc4)CC3)cc2c1 (stereo unspecified) . 11

* * *

molecular target: UniProt:P24666
Sequence (P24666 whole entry): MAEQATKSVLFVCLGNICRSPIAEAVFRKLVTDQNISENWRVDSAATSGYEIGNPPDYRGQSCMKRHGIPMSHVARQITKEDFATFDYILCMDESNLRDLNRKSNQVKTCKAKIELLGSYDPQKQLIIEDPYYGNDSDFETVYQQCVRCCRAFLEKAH
Exercise: for every item that follows, state its recorded IC50.

Solved cases below.
[
  {
    "compound": "COc1ccc2cc(C#N)c(SCC(=O)Nc3cccc(C)c3C)nc2c1",
    "endpoint_name": "IC50",
    "readout_value": "60.9 µM"
  },
  {
    "compound": "COc1ccc(-n2ncc3c(SCC(=O)N4c5ccccc5CC4C)ncnc32)cc1 (stereo not drawn)",
    "endpoint_name": "IC50",
    "readout_value": "> 90 µM"
  },
  {
    "compound": "Cc1ccc(NC(=O)CSc2nc3c(C)c(C)ccc3cc2C#N)cc1C",
    "endpoint_name": "IC50",
    "readout_value": "53.3 µM"
  },
  {
    "compound": "Cc1ccc2cc(C#N)c(SCC(=O)NC3CCCCC3)nc2c1C",
    "endpoint_name": "IC50",
    "readout_value": "45.3 µM"
  },
  {
    "compound": "CCOc1ccc(NC(=O)CSc2nc3c(C)cc(C)cc3cc2C#N)cc1",
    "endpoint_name": "IC50",
    "readout_value": "> 90 µM"
  },
  {
    "compound": "Cc1cccc2cc(C#N)c(SCC(=O)Nc3cccc(Cl)c3)nc12",
    "endpoint_name": "IC50",
    "readout_value": "> 90 µM"
  },
  {
    "compound": "Cc1ccc2cc(C#N)c(SCC(=O)Nc3ccc4c(c3)OCO4)nc2c1",
    "endpoint_name": "IC50",
    "readout_value": "> 90 µM"
  }
]

Under UniProt:P24666: IC50 value of Cc1ccc2sc(NC(=O)c3sc4ccccc4c3Cl)nc2c1 ? > 90 µM

* * *

Exercise: for every item that follows, state its recorded IC50.
Molecular target: Tyrosine-protein phosphatase non-receptor type 22 (Homo sapiens, UniProt Q9Y2R2)
Sequence (Q9Y2R2 whole entry): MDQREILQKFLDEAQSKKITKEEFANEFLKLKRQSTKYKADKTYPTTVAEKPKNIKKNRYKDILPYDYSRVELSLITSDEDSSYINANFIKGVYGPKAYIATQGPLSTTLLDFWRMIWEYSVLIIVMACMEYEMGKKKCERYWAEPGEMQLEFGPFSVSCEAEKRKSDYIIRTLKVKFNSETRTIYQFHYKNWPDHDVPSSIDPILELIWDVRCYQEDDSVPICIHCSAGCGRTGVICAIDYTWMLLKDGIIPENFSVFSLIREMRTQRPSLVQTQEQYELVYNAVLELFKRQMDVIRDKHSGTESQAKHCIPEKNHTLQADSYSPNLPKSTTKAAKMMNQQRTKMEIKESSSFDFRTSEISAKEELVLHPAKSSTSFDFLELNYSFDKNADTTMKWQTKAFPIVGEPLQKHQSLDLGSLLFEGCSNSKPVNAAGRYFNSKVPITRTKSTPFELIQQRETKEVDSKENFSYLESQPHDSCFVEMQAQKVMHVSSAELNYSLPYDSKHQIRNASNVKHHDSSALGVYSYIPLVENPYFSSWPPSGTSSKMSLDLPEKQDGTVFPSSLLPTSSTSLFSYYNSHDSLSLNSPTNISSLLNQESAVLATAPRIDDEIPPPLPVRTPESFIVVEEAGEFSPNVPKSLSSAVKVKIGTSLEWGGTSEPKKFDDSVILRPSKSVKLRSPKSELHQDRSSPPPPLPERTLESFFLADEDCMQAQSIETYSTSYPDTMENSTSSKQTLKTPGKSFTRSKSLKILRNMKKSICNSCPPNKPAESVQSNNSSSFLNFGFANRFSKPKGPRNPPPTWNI
Give bare numbers, in µM.

Solved cases below.
[
  {
    "molecule": "Cc1ccc2[nH]c(=O)c(C(c3nnnn3C3CCCC3)N3CCN(c4nc5ccccc5s4)CC3)cc2c1 (configuration not stated)",
    "IC50, µM": 30
  },
  {
    "molecule": "Cc1ccc2[nH]c(=O)c(C(c3nnnn3C3CCCC3)N3CCCCC3)cc2c1 (configuration not stated)",
    "IC50, µM": 30.9
  },
  {
    "molecule": "Cc1ccc2[nH]c(=O)c(C(c3nnnn3C3CCCC3)N3CCC(C)CC3)cc2c1 (configuration not stated)",
    "IC50, µM": 20.6
  },
  {
    "molecule": "Cc1ccc2[nH]c(=O)c(C(c3nnnn3-c3ccccc3)N3CCCC4(CCCCC4)C3)cc2c1 (configuration not stated)",
    "IC50, µM": 11.2
  }
]

Moving on to the next molecule.
Name the recorded IC50 for Cc1ccc2[nH]c(=O)c(C(c3nnnn3C3CCCC3)N3CCN(c4ccc(F)cc4)CC3)cc2c1 (configuration not stated) . 30.5
